- Tested on: Staphylococcus aureus
- assay.notes: In vitro antibacterial activity against Staphylococcus aureus Smith (A9537)
- Assay type: functional
- condition.description: Staphylococcus aureus; read-out: MIC
attribute.measured: MIC (µg/mL)
Lab book: enter the figure in µg/mL, no units written.

# count of solved cases: 9
* O=C(O)c1cn(CC2CC2)c2cc(N3CCNCC3)c(F)cc2c1=O | 1
* CCn1cc(C(=O)O)c(=O)c2cc(F)c(N3CCNCC3)nc21 | 0.25
* O=C(O)c1cn(Cc2ccccc2)c2cc(N3CCNCC3)c(F)cc2c1=O | 0.5
* CCC(C)(C)n1cc(C(=O)O)c(=O)c2cc(F)c(N3CCNCC3)cc21 | 0.25
* O=C(O)c1cn(-c2ccc(F)cc2)c2nc(N3CCNCC3)c(F)cc2c1=O | 0.39
* O=C(O)c1cn(C2CC=CC2)c2cc(N3CCNCC3)c(F)cc2c1=O | 2
* O=C(O)c1cn(C2CC2)c2nc(N3CCNCC3)c(F)cc2c1=O | 0.25
* O=C(O)c1cn(C2CC2)c2cc(N3CCNCC3)c(F)cc2c1=O | 0.13
* CC1(n2cc(C(=O)O)c(=O)c3cc(F)c(N4CCNCC4)cc32)CC1 | 0.25

(Q) Quickly give me recorded MIC for "CC(C)(C)n1cc(C(=O)O)c(=O)c2cc(F)c(N3CCNCC3)nc21"
(A) 0.06

###

- Test system: Klebsiella pneumoniae
- assay.notes: In vitro antibacterial activity against Klebsiella pneumoniae (A 9664)
- Format: functional
- condition.description: Klebsiella pneumoniae; read-out: MIC
Each entry below carries its recorded MIC.
Write the figure, then the unit, nothing else.

Solved cases below.
- CC(C)(C)n1cc(C(=O)O)c(=O)c2cc(F)c(N3CCNCC3)nc21: 0.13 µg/mL
- CC1(n2cc(C(=O)O)c(=O)c3cc(F)c(N4CCNCC4)cc32)CC1: 0.25 µg/mL
- CC1CCC1n1cc(C(=O)O)c(=O)c2cc(F)c(N3CCNCC3)cc21 (configuration not stated): 4 µg/mL
- O=C(O)c1cn(-c2ccc(F)cc2)c2nc(N3CCNCC3)c(F)cc2c1=O: 0.1 µg/mL
- CC(c1ccccc1)n1cc(C(=O)O)c(=O)c2cc(F)c(N3CCNCC3)cc21 (configuration not stated): 4 µg/mL
- O=C(O)c1cn(C2CC2)c2nc(N3CCNCC3)c(F)cc2c1=O: 0.06 µg/mL

Attention now turns to another entry.
(Q) Report measured MIC on Klebsiella pneumoniae; entry: "O=C(O)c1cn(C2(c3ccccc3)CC2)c2cc(N3CCNCC3)c(F)cc2c1=O"
(A) 0.25 µg/mL

###

- Test system: Klebsiella pneumoniae
- assay.notes: In vitro antibacterial activity against Klebsiella pneumoniae (A 9664)
- Type: functional
- condition.description: Klebsiella pneumoniae; read-out: MIC
attribute.measured: MIC (µg/mL)
Write the value in µg/mL as a bare number.

Worked cases, MIC given:
* CC(C)n1cc(C(=O)O)c(=O)c2cc(F)c(N3CCNCC3)nc21 | 1
* O=C(O)c1cn(-c2ccc(F)cc2)c2cc(N3CCNCC3)c(F)cc2c1=O [SARAFLOXACIN] | 0.02
* CC(C)(C)n1cc(C(=O)O)c(=O)c2cc(F)c(N3CCNCC3)cc21 | 0.13
* CCn1cc(C(=O)O)c(=O)c2cc(F)c(N3CCNCC3)cc21 [NORFLOXACIN] | 0.03

Proceed to the following item.
(Q) // Input: "O=C(O)c1cn(C23CC4CC(CC(C4)C2)C3)c2cc(N3CCNCC3)c(F)cc2c1=O" . Output its MIC only.
(A) 8

###

- Test system: Escherichia coli
- assay.notes: In vitro antibacterial activity against Escherichia coli (A 15119)
- Type: functional
- condition.description: Escherichia coli; read-out: MIC
attribute.measured: MIC (µg/mL)
Answer format: numeric, µg/mL implied, no suffix.

Consider the reported MIC for these compounds:
• CC1(n2cc(C(=O)O)c(=O)c3cc(F)c(N4CCNCC4)cc32)CC1 = 0.06
• O=C(O)c1cn(-c2ccc(F)cc2)c2nc(N3CCNCC3)c(F)cc2c1=O = 0.05
• O=C(O)c1cn(C2CC=CC2)c2cc(N3CCNCC3)c(F)cc2c1=O = 1
• CC1(C)CC1n1cc(C(=O)O)c(=O)c2cc(F)c(N3CCNCC3)cc21 (stereo not given) = 1

(Q) Specify MIC for "C=C(C)n1cc(C(=O)O)c(=O)c2cc(F)c(N3CCNCC3)cc21" and stop.
(A) 0.13

###

Quick reference: half-life of the listed items.
- assay.notes: Half-life in plasma after oral administration in dog (25 mg/kg)
- Format: ADME, organism-based, Canis lupus familiaris
Kindly provide the numeric value in h only, without the unit symbol.

- CC(C)(C)n1cc(C(=O)O)c(=O)c2cc(F)c(N3CCNCC3)nc21: 4.8

Attention now turns to another entry.
(Q) Look up and state reported half-life for "CC(C)(C)n1cc(C(=O)O)c(=O)c2cc(F)c(N3CCNCC3)cc21"
(A) 4.4

###

Recorded MIC, one value per entry.
- System: Escherichia coli
- assay.notes: In vitro antibacterial activity against Escherichia coli (A 15119)
- Type: functional
- condition.description: Escherichia coli; read-out: MIC
The answer is to be given in µg/mL; state only the numeric part.

Answered cases to consult:
* CCn1cc(C(=O)O)c(=O)c2cc(F)c(N3CCNCC3)cc21 | 0.13
* O=C(O)c1cn(C2CCC2)c2cc(N3CCNCC3)c(F)cc2c1=O | 0.13
* C=C(C)n1cc(C(=O)O)c(=O)c2cc(F)c(N3CCNCC3)nc21 | 0.13
* CCn1cc(C(=O)O)c(=O)c2cc(F)c(N3CCNCC3)nc21 | 0.13
* O=C(O)c1cn(C23CC4CC(CC(C4)C2)C3)c2cc(N3CCNCC3)c(F)cc2c1=O | 2
* CC1CCC1n1cc(C(=O)O)c(=O)c2cc(F)c(N3CCNCC3)cc21 (stereo not given) | 2
* CC(c1ccccc1)n1cc(C(=O)O)c(=O)c2cc(F)c(N3CCNCC3)cc21 (stereo not given) | 2
* CC(C)n1cc(C(=O)O)c(=O)c2cc(F)c(N3CCNCC3)nc21 | 0.25

(Q) Please give the documented MIC of "O=C(O)c1cn(-c2ccc(F)cc2)c2cc(N3CCNCC3)c(F)cc2c1=O"
(A) 0.05

(Q) Retrieve MIC measured for "CC(C)n1cc(C(=O)O)c(=O)c2cc(F)c(N3CCNCC3)cc21" and print it.
(A) 0.5

###

- System: Staphylococcus aureus
- assay.notes: In vitro antibacterial activity against Staphylococcus aureus Smith (A9537)
- Assay type: functional
- condition.description: Staphylococcus aureus; read-out: MIC
attribute.measured: log10 MIC (log10 of the value in µg/mL)
Please note: log10 values; quantity MIC; unit µg/mL.

Worked set:
- O=C(O)c1cn(C2CC2)c2c(F)c(N3CCNCC3)c(F)cc2c1=O: -0.89
- CC(C)n1cc(C(=O)O)c(=O)c2cc(F)c(N3CCNCC3)cc21: 0.00
- O=C(O)c1cn(C2CCC2)c2cc(N3CCNCC3)c(F)cc2c1=O: -0.30

(Q) Return value of log10 MIC for input "C=C(C)n1cc(C(=O)O)c(=O)c2cc(F)c(N3CCNCC3)nc21" , no commentary.
(A) -0.30

(Q) Look up log10 MIC of "CC(C)(C)n1cc(C(=O)O)c(=O)c2cc(F)c(N3CCNCC3)c(F)c21" and report it.
(A) -0.60

(Q) Return the recorded log10 MIC value; entry: "CC(C)(C)n1cc(C(=O)O)c(=O)c2cc(F)c(N3CCNCC3)cc21"
(A) -1.22

###

Reported log10 MIC is given for each of the following compounds.
- System: Staphylococcus aureus
- assay.notes: In vitro antibacterial activity against Staphylococcus aureus Smith (A9537)
- Type: functional
- condition.description: Staphylococcus aureus; read-out: MIC
Scale type: logarithmic (base 10). Underlying MIC unit: mg/L.

# count of solved cases: 4
- CC(c1ccccc1)n1cc(C(=O)O)c(=O)c2cc(F)c(N3CCNCC3)cc21 (stereo not given): 0.60
- CC1(n2cc(C(=O)O)c(=O)c3cc(F)c(N4CCNCC4)cc32)CCC1: -0.30
- CC(C)n1cc(C(=O)O)c(=O)c2cc(F)c(N3CCNCC3)nc21: 0.30
- CC1CCC1n1cc(C(=O)O)c(=O)c2cc(F)c(N3CCNCC3)cc21 (stereo not given): 0.60

(Q) # return recorded log10 MIC for entry "O=C(O)c1cn(C2(c3ccccc3)CC2)c2cc(N3CCNCC3)c(F)cc2c1=O"
(A) -0.89

(Q) Please indicate log10 MIC recorded for CCn1cc(C(=O)O)c(=O)c2cc(F)c(N3CCNCC3)cc21 [NORFLOXACIN]
(A) -0.60

(Q) Tell us which log10 MIC value is on record for "O=C(O)c1cn(C23CC4CC(CC(C4)C2)C3)c2cc(N3CCNCC3)c(F)cc2c1=O"
(A) 0.90

(Q) Identify measured log10 MIC corresponding to CC1(C)CC1n1cc(C(=O)O)c(=O)c2cc(F)c(N3CCNCC3)cc21 (stereo not given)
(A) 0.00

(Q) Fill in log10 MIC for record O=C(O)c1cn(-c2ccc(F)cc2)c2cc(N3CCNCC3)c(F)cc2c1=O [SARAFLOXACIN]
(A) -0.70

(Q) Could you please provide reported log10 MIC for "C=C(C)n1cc(C(=O)O)c(=O)c2cc(F)c(N3CCNCC3)cc21" ? Thanks!
(A) -0.30
